Test system: OVCAR-3 ovarian
Test: NCI tumour cell line growth inhibition, 48 h
Where a SMILES comes first, the peptide text is derived from it. [ ]: non-standard residue; d: D form. ξ: configuration not given here. ξLac(3-iPr) = CC(C)CC(O)C(=O)O; NMeV = CN[CH](C(=O)O)C(C)C; NMeA = CN[CH](C)C(=O)O; βAla = NCCC(=O)O
# TGI per entry

- Compound: "NC1=NN(c2ccccc2)C(=O)C1C(=O)C(=O)Nc1nccs1 (stereo unspecified)"
  TGI: "> 100 µM"
- Compound: "O=C(Nc1cccc(Cl)c1)c1cccc(NC2=C(Cl)C(=O)N(Cc3ccccc3)C2=O)c1"
  TGI: "> 100 µM"
- Compound: "CSc1nc2c(c(N3CCOCC3)n1)C(O)n1c(nc3ccccc31)S2 (stereo unspecified)"
  TGI: "> 100 µM"
- Compound: "Cc1ccc(C(=O)/C(=C\\c2ccc([N+](=O)[O-])cc2)S(=O)Cc2ccc(Cl)cc2)cc1 (stereo unspecified)"
  TGI: "3.14 µM"
- Compound: "CO/N=C(\\COc1ccc2oc(-c3ccccc3)cc(=O)c2c1)c1ccc(OC)cc1"
  TGI: "71 µM"
- Compound: "CCCCCCCCCCCCCCCCCCNc1nc(=O)n(C2CC(O)C(COP(=O)(O)OCC3OC(n4ccc(N)nc4=O)C(O)C3O)O2)cc1F (stereo unspecified)"
  TGI: "> 100 µM"
- Compound: "CC1(c2ccc(Cl)s2)CC(c2ccc(Cl)s2)=C(C#N)C(=C(C#N)C#N)N1 (stereo unspecified)"
  TGI: "28.4 µM"
- Compound: "COC(=O)[C@H]1COC(=O)N1"
  TGI: "> 100 µM"
- Compound: "O=C(CCn1[nH]c(=O)c(Cl)c(Cl)c1=O)NNC(=O)C[n+]1ccccc1"
  TGI: "> 100 µM"
- Compound: "O=C1NNC2NC(=O)C3(NN2C1=O)c1ccccc1-c1ccccc13 (stereo unspecified)"
  TGI: "> 100 µM"
- Compound: "CC(=O)O[C@@]1(C)[C@@H](C)C(=O)O[C@@H]2CCN3CC=C(COC(=O)[C@]1(C)O)[C@H]23"
  TGI: "> 100 µM"
- Compound: "Oc1c(Br)cc(/C=C/c2cccc(/C=C/c3cc(Br)c(O)c(Br)c3)n2)cc1Br"
  TGI: "31.1 µM"
- Compound: "N#Cc1c(N)nc(N2CCOCC2)c(C#N)c1-c1ccccn1"
  TGI: "> 100 µM"
- Compound: "Oc1ccc(C2c3ccccc3Oc3ccccc32)c2cccnc12"
  TGI: "> 100 µM"
- Compound: "Nc1ccc(C23CC4CC(C2)CC(c2ccc(N)cc2)(C4)C3)cc1"
  TGI: "> 100 µM"
- Compound: "CCOC(=O)c1cnc2c(ccc3ncccc32)c1NCCCN(CC)CC"
  TGI: "> 100 µM"
- Compound: "CCC(C)C1NC(=O)C2CCCN2C(=O)C(CC(C)C)OC(=O)CCNC(=O)C(C)N(C)C(=O)C(C(C)C)N(C)C1=O (stereo unspecified) (cyclo([ξLac(3-iPr)]PI[NMeV][NMeA][βAla]); configuration not given here)"
  TGI: "> 100 µM"
- Compound: "CO/N=C\\c1cc(O)c(O)c(/C=N/OC)c1"
  TGI: "> 100 µM"
- Compound: "O=C(/C=C/C12c3ccccc3C(c3ccccc31)C1C(=O)NC(=O)C12)c1ccc(F)cc1 (stereo unspecified)"
  TGI: "3.15 µM"
- Compound: "COC(=O)C12OCC34C(CC5C(C)C6=CC(=O)OC6=CC5(C)C3C(O)C1O)OC(=O)C(O)C24 (stereo unspecified)"
  TGI: "3.61 µM"
- Compound: "CCOC(=O)c1c(C)n(C)c2c1cc(O)c1[nH]c3c(c12)CCCC3"
  TGI: "25.1 µM"
